- test_description: Oral bioavailability in dog
- Type: ADME, organism-based, Canis lupus familiaris
- particulars: in vivo
measurement_label: bioavailability (%)
The answer is to be given in %; state only the numeric part.

Recorded bioavailability (compound C[C@H]1NC(=O)c2cc(-c3cccc4c(=O)n(C)c(NC(C)(C)C)nc34)[nH]c21 ): 44

---

- test_description: Fraction unbound in rat plasma at 5 uM by rapid equilibrium dialysis
- Format: ADME, cell-free
fraction unbound at 5 µM for assorted compounds
// return a plain number; no unit text

structure_as_smiles | data_value
C[C@H]1NC(=O)c2cc(-c3c(F)ccc4c(=O)n(C)c(NC(C)(C)C)nc34)[nH]c21 | 0.062

Next compound, please.
Recorded fraction unbound at 5 µM (compound Cc1nc2ccc(F)c(-c3cc4c([nH]3)CCNC4=O)c2nc1NC(C)(C)C ): 0.017

---

- tested_system: Serine/threonine-protein kinase pim-2 (Homo sapiens, UniProt Q9P1W9)
- Sequence (Q9P1W9 whole entry): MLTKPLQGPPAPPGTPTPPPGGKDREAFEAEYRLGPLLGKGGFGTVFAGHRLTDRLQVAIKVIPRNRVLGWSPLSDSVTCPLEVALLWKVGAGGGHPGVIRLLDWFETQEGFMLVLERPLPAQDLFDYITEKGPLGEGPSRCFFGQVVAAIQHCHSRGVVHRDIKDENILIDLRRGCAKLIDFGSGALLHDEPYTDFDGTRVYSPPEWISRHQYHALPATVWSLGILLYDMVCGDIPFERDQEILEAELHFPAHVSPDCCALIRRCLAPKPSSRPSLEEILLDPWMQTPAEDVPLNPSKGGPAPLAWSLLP
- test_description: Inhibition of full length recombinant Pim-2 (unknown origin) assessed as reduction in phosphorylation of biotinylated-BAD peptide at Serine 112 residue preincubated for 30 mins followed by substrate addition for 1 hr by HTRF assay
# thresholds on IC50 define classes: 0 = under 1 nM, 1 = from 1 nM up to 6 nM, 2 = 6 nM and over

structure_as_smiles | tested_system | cat
Cc1nc2cccc(-c3cc4c(s3)C(=O)NC4)c2nc1NC(C)(C)C | Serine/threonine-protein kinase pim-2 (Homo sapiens, UniProt Q9P1W9) | 1
C[C@H]1NC(=O)c2cc(-c3cccc4c(=O)n(C)c(CC(C)(C)C)nc34)[nH]c21 | Serine/threonine-protein kinase pim-2 (Homo sapiens, UniProt Q9P1W9) | 1
C[C@H]1NC(=O)c2cc(-c3nccc4c(=O)n(C)c(NC(C)(C)C)nc34)[nH]c21 | Serine/threonine-protein kinase pim-2 (Homo sapiens, UniProt Q9P1W9) | 2

Now look at this entry.
**Query** Please classify: Cc1nc2cccc(-c3cc4c([nH]3)CNC4=O)c2nc1NC(C)(C)C
**Result** 0

---

- test_description: Aqueous solubility of the compound in FaSIF at pH 6.8 after 1 hr by LC/MS analysis
log10 solubility at 1 h for assorted compounds
In plain terms, each number is the log10 of measured solubility at 1 h in µM.

Solved entries:
structure_as_smiles | measurement_label | data_value
C[C@H]1NC(=O)c2cc(-c3cccc4c(=O)n(C)c(N(C)C(C)(C)C)nc34)[nH]c21 | log10 solubility at 1 h | 2.09
C[C@H]1NC(=O)c2cc(-c3cccc4c(=O)n(C)c(N5CCCC5(C)C)nc34)[nH]c21 | log10 solubility at 1 h | 1.54
C[C@H]1NC(=O)c2cc(-c3cccc4c(=O)n(C)c(NC(C)(C)CO)nc34)[nH]c21 | log10 solubility at 1 h | 2.13
C[C@H]1NC(=O)c2cc(-c3c(F)ccc4c(=O)n(C)c(NC(C)(C)C)nc34)[nH]c21 | log10 solubility at 1 h | 1.36

Recorded log10 solubility at 1 h (compound C[C@H]1NC(=O)c2cc(-c3cccc4c(=O)n(C)c(CC(C)(C)C)nc34)[nH]c21 ): 0.95

Recorded log10 solubility at 1 h (compound Cc1nc2cccc3c2nc1N[C@H](C)/C=C\C[C@H]1CNC(=O)c2cc-3[nH]c21 ): 2.47

Recorded log10 solubility at 1 h (compound Cc1nc2cccc(-c3cc4c([nH]3)[C@@H](C)NC4=O)c2nc1NC(C)(C)C ): 2.39

Recorded log10 solubility at 1 h (compound C[C@H]1NC(=O)c2cc(-c3cccc4c(=O)n(C)c(NC5(C)CC5)nc34)[nH]c21 ): 2.54

Recorded log10 solubility at 1 h (compound C[C@H]1NC(=O)c2cc(-c3cccc4c(=O)n(C)c(NC(C)(C)C)nc34)[nH]c21 ): 2.02

---

- test_description: Intrinsic clearance in rat liver microsomes at 1 uM after 30 mins in presence of NADPH
- Assay type: ADME, Microsome
- particulars: read-out: CLH
measurement_label: microsomal CLint at 1 µM (µL/min/mg)
The answer is to be given in µL/min/mg; state only the numeric part.

Solved entries:
structure_as_smiles | microsomal CLint at 1 µM (µL/min/mg)
Cc1nc2cccc(-c3cc4n(c3)CCNC4=O)c2nc1NC(C)(C)C | 205
Cc1nc2cccc(-c3[nH]c4c(c3Cl)C(=O)N[C@@H]4C)c2nc1NC(C)(C)C | 143
Cc1nc2ccc(F)c(-c3cc4c([nH]3)[C@@H](C)NC4=O)c2nc1NC(C)(C)C | 52

Next compound, please.
Recorded microsomal CLint at 1 µM (compound Cc1nc2cccc(-c3cc4c(s3)CNC4=O)c2nc1NC(C)(C)C ): 326

---

- test_description: Volume of distribution at steady state in rat at 2 mg/kg, iv or 5 mg/kg, po
- Assay type: ADME, organism-based
- particulars: in vivo, read-out: Vdss
measurement_label: Vd (L/kg)
The answer is to be given in L/kg; state only the numeric part.

Solved entries:
structure_as_smiles | unit_symbol | Vd
Cc1nc2cccc(-c3cc4c([nH]3)[C@@H](CCN)NC4=O)c2nc1NC(C)(C)C | L/kg | 21.2
C[C@H]1NC(=O)c2cc(-c3c(F)ccc4c(=O)n(C)c(NC(C)(C)C)nc34)[nH]c21 | L/kg | 1.4
Cc1nc2cccc(-c3cc4c([nH]3)CNC4=O)c2nc1NC(C)(C)C | L/kg | 2.3
Cc1nc2ccc(F)c(-c3cc4c([nH]3)[C@@H](C)NC4=O)c2nc1NC(C)(C)C | L/kg | 1.6

Recorded Vd (molecule Cc1nc2cccc(-c3cc4c([nH]3)CCNC4=O)c2nc1NC(C)(C)C ): 4.2

Recorded Vd (molecule C[C@H]1NC(=O)c2cc(-c3cccc4c(=O)n(C)c(NC(C)(C)C)nc34)[nH]c21 ): 1.5

Recorded Vd (molecule Cc1nc2cccc(-c3cc4c([nH]3)C3(CC3)NC4=O)c2nc1NC(C)(C)C ): 1.3

Recorded Vd (molecule Cc1nc2cccc(-c3cc4c([nH]3)[C@@H](C)NC4=O)c2nc1NC(C)(C)C ): 1.3

Recorded Vd (molecule Cc1nc2ccc(F)c(-c3cc4c([nH]3)CCNC4=O)c2nc1NC(C)(C)C ): 1

Recorded Vd (molecule C[C@H]1NC(=O)c2cc(-c3cccc4c(=O)n(C)c(NC5(C)CC5)nc34)[nH]c21 ): 1.9

---

- test_description: Half life in rat at 2 mg/kg, iv or 5 mg/kg, po
- Assay type: ADME, organism-based
- particulars: in vivo
measurement_label: half-life (h)
The answer is to be given in h; state only the numeric part.

Solved entries:
structure_as_smiles | half-life / h
Cc1nc2cccc(-c3cc4c([nH]3)[C@@H](CCN)NC4=O)c2nc1NC(C)(C)C | 17.5
C[C@H]1NC(=O)c2cc(-c3c(F)ccc4c(=O)n(C)c(NC(C)(C)C)nc34)[nH]c21 | 4.3
Cc1nc2cccc(-c3cc4c([nH]3)[C@@H](C)NC4=O)c2nc1NC(C)(C)C | 3
Cc1nc2cccc(-c3cc4c([nH]3)C3(CC3)NC4=O)c2nc1NC(C)(C)C | 4.5
Cc1nc2cccc(-c3cc4c([nH]3)CCNC4=O)c2nc1NC(C)(C)C | 4.7

Recorded half-life (compound Cc1nc2cccc(-c3cc4c([nH]3)CNC4=O)c2nc1NC(C)(C)C ): 1.7

Recorded half-life (compound Cc1nc2ccc(F)c(-c3cc4c([nH]3)CCNC4=O)c2nc1NC(C)(C)C ): 3.5

Recorded half-life (compound Cc1nc2ccc(F)c(-c3cc4c([nH]3)[C@@H](C)NC4=O)c2nc1NC(C)(C)C ): 2.9

---

IC50 for assorted compounds
- tested_system: Serine/threonine-protein kinase pim-2 (Homo sapiens, UniProt Q9P1W9)
- test_description: Inhibition of full length recombinant Pim-2 (unknown origin) assessed as reduction in phosphorylation of biotinylated-BAD peptide at Serine 112 residue preincubated for 30 mins followed by substrate addition for 1 hr by HTRF assay
Record the result as number plus unit.

structure_as_smiles | IC50
Cc1nc2cccc(-c3cc4c([nH]3)[C@@H](CCN)NC4=O)c2nc1NC(C)(C)C | 0.3 nM
C[C@H]1NC(=O)c2cc(-c3cccc4c(=O)n(C)c(NC(C)(C)CO)nc34)[nH]c21 | 0.9 nM
Cc1nc2cccc(-c3cc4c([nH]3)CCNC4=O)c2nc1NC(C)(C)C | 0.6 nM

Recorded IC50 (compound C[C@H]1NC(=O)c2cc(-c3cccc4c(=O)n(C)c(N5CCCC5(C)C)nc34)[nH]c21 ): 0.6 nM

Recorded IC50 (compound Cc1nc2ccc(F)c(-c3cc4c([nH]3)CCNC4=O)c2nc1NC(C)(C)CO ): 0.3 nM

Recorded IC50 (compound Cc1nc2cccc(-c3cc4c([nH]3)C3(CC3)NC4=O)c2nc1NC(C)(C)C ): 0.5 nM

Recorded IC50 (compound C[C@H]1NC(=O)c2cc(-c3cccc4c3N=C(NC(C)(C)C)N(C)S4(=O)=O)[nH]c21 ): 5.2 nM

Recorded IC50 (compound Cc1nc2ccc(F)c(-c3cc4c(=O)[nH]ccc4[nH]3)c2nc1NC(C)(C)C ): 0.1 nM

Recorded IC50 (compound Cc1nc2cccc(-c3cc4c(s3)CNC4=O)c2nc1NC(C)(C)C ): 6.8 nM
